System: 885724-159-R-J1-PDC complex spheroid viability
Assay: Anticancer human tumor 885724-159-R-J1-PDC patient-derived pancreatic adenocarcinoma cell line growth inhibition [GQUAD]
Conditions: second compound 0.316 µM; first compound 10 µM; stronger effect = lower value
This listing pairs compounds with measured viability, T/C.

{"columns": ["compound", "viability, T/C"],
 "data": [
  ["C=CC(=O)N1CCN(c2nc(=O)n(-c3c(C)ccnc3C(C)C)c3nc(-c4c(O)cccc4F)c(F)cc23)C(C)C1 (centres undefined) + Cc1cnc(CNC(=O)c2c(=O)c3ccc(N4CCCN(C)CC4)nc3n3c2sc2ccccc23)cn1", "96%"],
  ["Nc1ccn(C2OC(CO)C(O)C2(F)F)c(=O)n1 (centres undefined) + CN(C)c1ccc(Nc2c3ccc(NC(=O)CCN4CCCC4)cc3nc3cc(NC(=O)CCN4CCCC4)ccc23)cc1", "59.8%"],
  ["O=C(NO)c1cnc(N2CCN(S(=O)(=O)c3ccc4ccccc4c3)CC2)nc1 + Cc1cnc(CNC(=O)c2c(=O)c3ccc(N4CCCN(C)CC4)nc3n3c2sc2ccccc23)cn1", "0.32%"],
  ["O=C(c1cc(Cc2n[nH]c(=O)c3ccccc23)ccc1F)N1CCN(C(=O)C2CC2)CC1 + CN(C)c1ccc(Nc2c3ccc(NC(=O)CCN4CCCC4)cc3nc3cc(NC(=O)CCN4CCCC4)ccc23)cc1", "80%"]
]}

* * *

System: 885724-159-R-J1-PDC complex spheroid viability
Test: Anticancer human tumor 885724-159-R-J1-PDC cell line growth inhibition [GQUAD];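 note: spheroids exposed to agents for seven days before readout; percent of vehicle control viability where 100% = DMSO wells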
Settings: second compound 0.0316 µM; first compound 1 µM; stronger effect = lower value
readoutKind: viability, T/C

{"columns": ["compound", "endpointResult"],
 "data": [
  ["COc1cc(C2c3cc4c(cc3C(OC3OC5COC(C)OC5C(O)C3O)C3COC(=O)C23)OCO4)cc(OC)c1O (configuration not stated) + CN(C)c1ccc(Nc2c3ccc(NC(=O)CCN4CCCC4)cc3nc3cc(NC(=O)CCN4CCCC4)ccc23)cc1", "87.6%"],
  ["Nc1ccn(C2OC(CO)C(O)C2(F)F)c(=O)n1 (configuration not stated) + Cc1cnc(CNC(=O)c2c(=O)c3ccc(N4CCCN(C)CC4)nc3n3c2sc2ccccc23)cn1", "98.1%"],
  ["C=CCn1c(=O)c2cnc(Nc3ccc(N4CCN(C)CC4)cc3)nc2n1-c1cccc(C(C)(C)O)n1 + CN(C)c1ccc(Nc2c3ccc(NC(=O)CCN4CCCC4)cc3nc3cc(NC(=O)CCN4CCCC4)ccc23)cc1", "81.6%"],
  ["C=CC(=O)N1CCN(c2nc(=O)n(-c3c(C)ccnc3C(C)C)c3nc(-c4c(O)cccc4F)c(F)cc23)C(C)C1 (configuration not stated) + CN(C)c1ccc(Nc2c3ccc(NC(=O)CCN4CCCC4)cc3nc3cc(NC(=O)CCN4CCCC4)ccc23)cc1", "93.4%"],
  ["CC(C)n1c(=O)n(C)c2cnc3cc(F)c(-c4ccc(OCCCN5CCCCC5)nc4)cc3c21 + Cc1[nH]c2ccc(F)cc2c1-c1nc2c3cccnc3c3ncccc3c2[nH]1", "92.9%"],
  ["COc1ncnc(C2CC2)c1-c1ncc2cnn(Cc3ccc(-c4nc(C(F)(F)F)cn4C(C)C)cc3)c2n1 + Cc1cnc(CNC(=O)c2c(=O)c3ccc(N4CCCN(C)CC4)nc3n3c2sc2ccccc23)cn1", "114%"],
  ["O=c1[nH]cc(F)c(=O)[nH]1 + Cc1[nH]c2ccc(F)cc2c1-c1nc2c3cccnc3c3ncccc3c2[nH]1", "95.9%"],
  ["CC1COCCN1c1cc(-c2ccnn2C)c2ccnc(-c3ccn[nH]3)c2n1 (configuration not stated) + CN(C)c1ccc(Nc2c3ccc(NC(=O)CCN4CCCC4)cc3nc3cc(NC(=O)CCN4CCCC4)ccc23)cc1", "65%"],
  ["O=C(c1cc(Cc2n[nH]c(=O)c3ccccc23)ccc1F)N1CCN(C(=O)C2CC2)CC1 + Cc1cnc(CNC(=O)c2c(=O)c3ccc(N4CCCN(C)CC4)nc3n3c2sc2ccccc23)cn1", "99.2%"],
  ["CCCS(=O)(=O)Nc1ccc(F)c(C(=O)c2c[nH]c3ncc(-c4ccc(Cl)cc4)cc23)c1F + Cc1cnc(CNC(=O)c2c(=O)c3ccc(N4CCCN(C)CC4)nc3n3c2sc2ccccc23)cn1", "141%"],
  ["COc1cccc2c1C(=O)c1c(O)c3c(c(O)c1C2=O)CC(O)(C(=O)CO)CC3OC1CC(N)C(O)C(C)O1 (configuration not stated) + Cc1[nH]c2ccc(F)cc2c1-c1nc2c3cccnc3c3ncccc3c2[nH]1", "71.8%"],
  ["O=C(c1cc(Cc2n[nH]c(=O)c3ccccc23)ccc1F)N1CCN(C(=O)C2CC2)CC1 + CN(C)c1ccc(Nc2c3ccc(NC(=O)CCN4CCCC4)cc3nc3cc(NC(=O)CCN4CCCC4)ccc23)cc1", "92.4%"],
  ["COc1ccc([C@@H](O)c2cc(-c3ncnc4cc(N5CCOCC5)ccc34)c(F)cc2Cl)nn1 + Cc1cnc(CNC(=O)c2c(=O)c3ccc(N4CCCN(C)CC4)nc3n3c2sc2ccccc23)cn1", "92.3%"],
  ["CCCS(=O)(=O)Nc1ccc(F)c(C(=O)c2c[nH]c3ncc(-c4ccc(Cl)cc4)cc23)c1F + Cc1[nH]c2ccc(F)cc2c1-c1nc2c3cccnc3c3ncccc3c2[nH]1", "130%"],
  ["CC(C)n1c(=O)n(C)c2cnc3cc(F)c(-c4ccc(OCCCN5CCCCC5)nc4)cc3c21 + Cc1cnc(CNC(=O)c2c(=O)c3ccc(N4CCCN(C)CC4)nc3n3c2sc2ccccc23)cn1", "114%"],
  ["CC(C)(O)C1CCC(Nc2ccc3ncc(-c4cccc(C(F)(F)F)c4)n3n2)CC1 (configuration not stated) + Cc1[nH]c2ccc(F)cc2c1-c1nc2c3cccnc3c3ncccc3c2[nH]1", "84.6%"],
  ["Cc1cccc(N(C)C(=O)C2C(O)CCN2c2nc(C)cc(C(F)(F)F)c2C#N)c1 (configuration not stated) + Cc1cnc(CNC(=O)c2c(=O)c3ccc(N4CCCN(C)CC4)nc3n3c2sc2ccccc23)cn1", "99.7%"]
]}

* * *

System: 885724-159-R-J1-PDC complex spheroid viability
Experiment: Anticancer human tumor 885724-159-R-J1-PDC cell line growth inhibition [GQUAD]; active = viability on the fitted dose curve at most 10% of control; inactive = the rest;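 note: spheroids exposed to agents for seven days before readout; percent of vehicle control viability where 100% = DMSO wells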
Conditions: second compound 10 µM; first compound 10 µM
Description: DNA G-quadruplex Stabilizer Agents in Combinations in Complex Spheroids A high-throughput screen of multi-cell type tumor spheroids was designed to identify active combinations of DNA G-quadruplex stabilizer agents and targeted small molecules. […] Compounds. […] If the clinical Cmax for an agent had not been determined, the highest concentration tested was 10 microM. […]
Outcome codes: true for active, false for inactive

{"columns": ["molecule", "group"],
 "data": [
  ["C#Cc1c(F)ccc2cc(O)cc(-c3ncc4c(N5CC6CCC(C5)N6)nc(OCC56CCCN5CC(F)C6)nc4c3F)c12 (centres undefined) + Cc1[nH]c2ccc(F)cc2c1-c1nc2c3cccnc3c3ncccc3c2[nH]1", "false"],
  ["O=C(c1cc(Cc2n[nH]c(=O)c3ccccc23)ccc1F)N1CCN(C(=O)C2CC2)CC1 + CN(C)c1ccc(Nc2c3ccc(NC(=O)CCN4CCCC4)cc3nc3cc(NC(=O)CCN4CCCC4)ccc23)cc1", "false"],
  ["CC(=O)O[C@H]1C(=O)[C@@]2(C)[C@H]([C@H](OC(=O)c3ccccc3)[C@]3(O)C[C@H](OC(=O)[C@H](O)[C@@H](NC(=O)c4ccccc4)c4ccccc4)C(C)=C1C3(C)C)[C@]1(OC(C)=O)CO[C@@H]1C[C@@H]2O + CN(C)c1ccc(Nc2c3ccc(NC(=O)CCN4CCCC4)cc3nc3cc(NC(=O)CCN4CCCC4)ccc23)cc1", "false"],
  ["COc1cc(C2c3cc4c(cc3C(OC3OC5COC(C)OC5C(O)C3O)C3COC(=O)C23)OCO4)cc(OC)c1O (centres undefined) + CN(C)c1ccc(Nc2c3ccc(NC(=O)CCN4CCCC4)cc3nc3cc(NC(=O)CCN4CCCC4)ccc23)cc1", "false"],
  ["O=C(c1cc(Cc2n[nH]c(=O)c3ccccc23)ccc1F)N1CCN(C(=O)C2CC2)CC1 + Cc1[nH]c2ccc(F)cc2c1-c1nc2c3cccnc3c3ncccc3c2[nH]1", "false"],
  ["Cc1cccc(N(C)C(=O)C2C(O)CCN2c2nc(C)cc(C(F)(F)F)c2C#N)c1 (centres undefined) + Cc1cnc(CNC(=O)c2c(=O)c3ccc(N4CCCN(C)CC4)nc3n3c2sc2ccccc23)cn1", "false"],
  ["C#Cc1c(F)ccc2cc(O)cc(-c3ncc4c(N5CC6CCC(C5)N6)nc(OCC56CCCN5CC(F)C6)nc4c3F)c12 (centres undefined) + Cc1cnc(CNC(=O)c2c(=O)c3ccc(N4CCCN(C)CC4)nc3n3c2sc2ccccc23)cn1", "true"],
  ["COc1ncnc(C2CC2)c1-c1ncc2cnn(Cc3ccc(-c4nc(C(F)(F)F)cn4C(C)C)cc3)c2n1 + Cc1[nH]c2ccc(F)cc2c1-c1nc2c3cccnc3c3ncccc3c2[nH]1", "false"],
  ["CC(=O)O[C@H]1C(=O)[C@@]2(C)[C@H]([C@H](OC(=O)c3ccccc3)[C@]3(O)C[C@H](OC(=O)[C@H](O)[C@@H](NC(=O)c4ccccc4)c4ccccc4)C(C)=C1C3(C)C)[C@]1(OC(C)=O)CO[C@@H]1C[C@@H]2O + Cc1[nH]c2ccc(F)cc2c1-c1nc2c3cccnc3c3ncccc3c2[nH]1", "false"]
]}
